Measured IC50 by item
experimental system: Short transient receptor potential channel 6 (Mus musculus) (UniProt Q61143)
Sequence (Q61143 whole entry, looked up): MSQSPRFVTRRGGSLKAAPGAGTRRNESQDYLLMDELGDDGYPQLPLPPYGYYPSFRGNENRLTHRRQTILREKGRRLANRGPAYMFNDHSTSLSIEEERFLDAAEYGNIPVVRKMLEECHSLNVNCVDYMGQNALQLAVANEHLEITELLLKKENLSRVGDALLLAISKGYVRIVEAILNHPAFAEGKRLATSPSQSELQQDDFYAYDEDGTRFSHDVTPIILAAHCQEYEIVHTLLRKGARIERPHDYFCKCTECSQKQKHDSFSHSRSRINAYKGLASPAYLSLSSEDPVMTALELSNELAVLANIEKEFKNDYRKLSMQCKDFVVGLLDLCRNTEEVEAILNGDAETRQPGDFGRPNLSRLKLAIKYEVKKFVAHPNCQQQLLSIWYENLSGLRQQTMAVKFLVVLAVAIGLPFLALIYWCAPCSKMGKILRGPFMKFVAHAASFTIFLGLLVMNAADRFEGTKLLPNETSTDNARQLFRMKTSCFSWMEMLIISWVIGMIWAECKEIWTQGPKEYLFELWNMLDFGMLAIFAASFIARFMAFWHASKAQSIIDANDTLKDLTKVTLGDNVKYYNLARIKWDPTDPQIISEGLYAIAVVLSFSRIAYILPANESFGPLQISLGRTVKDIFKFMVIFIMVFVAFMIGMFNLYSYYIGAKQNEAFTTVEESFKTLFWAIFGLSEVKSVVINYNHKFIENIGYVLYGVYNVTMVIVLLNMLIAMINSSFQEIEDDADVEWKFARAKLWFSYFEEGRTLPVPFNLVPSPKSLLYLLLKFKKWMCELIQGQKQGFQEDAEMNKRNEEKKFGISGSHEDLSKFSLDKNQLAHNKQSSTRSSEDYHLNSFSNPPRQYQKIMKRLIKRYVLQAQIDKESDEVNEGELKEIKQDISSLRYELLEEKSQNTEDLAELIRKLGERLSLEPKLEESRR
test protocol: TRPC6 inhibitor potency, dose response, cell-based, mouse TRPC6, HEK293, membrane potential (AID 2696)
measurement parameters: TRPC6-expressing HEK293 cells, membrane potential dye fluorescence, acetylcholine-stimulated
endpoint name: IC50

compound | endpoint name | recorded measurement
Cc1ccc(C[n+]2c(-c3ccc(C)cc3)cc(-c3ccc(C)cc3)cc2-c2ccc(C)cc2)cc1 | IC50 | 79.4 µM
Brc1ccc(-c2c[n+]3c(n2-c2ccccc2)SCC3)cc1 | IC50 | 50.1 µM
Cc1cc(C)c2sc(N(CCCN(C)C)C(=O)c3ccc(Br)s3)nc2c1 | IC50 | 63.1 µM
COc1ccc(N2CCN(S(=O)(=O)CCNC(=O)COc3ccccc3C)CC2)cc1 | IC50 | 39.8 µM
COc1ccc(CCC(C)NC2C3CC4CC(C3)CC2C4)cc1 (stereo not given) | IC50 | 44.7 µM
CC1(C)CC(N=c2cc(-c3ccccc3)oc3ccc(Cl)cc23)CC(C)(C)N1 | IC50 | 50.1 µM
C[N+]1(C)CCC(OC(=O)C(c2ccccc2)c2ccccc2)CC1 | IC50 | 0.28 µM
COc1cc2c(cc1O)CC[n+]1cc3c(OC)c(OC)ccc3cc1-2 | IC50 | 50.1 µM
CC[N+]1(C)CCC(=C2c3ccccc3CC(=O)c3sccc32)CC1 (stereo not given) | IC50 | 12.6 µM
CCCn1c(=N)c(C(=O)NC2CCCC2)cc2c(=O)n3cccc(C)c3nc21 | IC50 | 44.7 µM
